- test system: Signal transducer and activator of transcription 3 (Mus musculus, UniProt P42227)
- Sequence (P42227 whole entry, the tested form may be a part): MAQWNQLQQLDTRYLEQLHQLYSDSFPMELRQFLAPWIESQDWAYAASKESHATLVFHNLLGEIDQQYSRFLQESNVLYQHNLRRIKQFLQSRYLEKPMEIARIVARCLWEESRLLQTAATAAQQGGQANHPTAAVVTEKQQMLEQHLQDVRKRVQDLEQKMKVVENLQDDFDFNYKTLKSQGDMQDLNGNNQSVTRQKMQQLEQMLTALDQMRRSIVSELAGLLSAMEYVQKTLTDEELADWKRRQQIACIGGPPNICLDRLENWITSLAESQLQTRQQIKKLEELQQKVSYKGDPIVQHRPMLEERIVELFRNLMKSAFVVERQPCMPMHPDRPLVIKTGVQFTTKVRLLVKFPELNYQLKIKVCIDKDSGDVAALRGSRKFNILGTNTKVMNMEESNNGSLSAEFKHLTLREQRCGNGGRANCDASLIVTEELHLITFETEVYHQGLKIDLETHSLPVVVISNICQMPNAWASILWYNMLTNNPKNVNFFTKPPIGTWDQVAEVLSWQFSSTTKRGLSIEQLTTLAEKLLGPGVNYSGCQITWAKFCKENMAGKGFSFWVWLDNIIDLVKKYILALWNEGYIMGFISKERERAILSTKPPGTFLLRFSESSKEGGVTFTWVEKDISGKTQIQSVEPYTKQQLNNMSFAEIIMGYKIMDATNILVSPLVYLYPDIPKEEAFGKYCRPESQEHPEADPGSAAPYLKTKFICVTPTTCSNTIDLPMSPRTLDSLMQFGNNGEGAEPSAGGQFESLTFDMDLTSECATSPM
- assay remarks: Inhibition of oligonucleotide [32P]-labelled 5'-AGCITCATTTCCCGTAAATCCCTA probe binding to STAT3 SH2 domain in mouse NIH3T3/v-Src nuclear extract preincubated for 30 mins followed by hSIE probe addition by EMSA analysis
- Assay type: subcellular, Nucleus
pIC50: −log10 of the molar value.
reported property: pIC50

Below, each entry is followed by its recorded pIC50 result.
O=C(O)c1ccc(N(Cc2ccc(C3CCCCC3)cn2)C(=O)[C@H]2CCN2S(=O)(=O)c2c(F)c(F)c(F)c(F)c2F)cn1 | < 5.70
COC(=O)c1ccc(N(Cc2cnc(C3CCCCC3)cn2)C(=O)[C@H]2CCN2S(=O)(=O)c2c(F)c(F)c(F)c(F)c2F)c(F)c1 | < 5.00
COC(=O)c1ccc(N(Cc2ccc(C3CCCCC3)cc2)C(=O)[C@H]2CCN2S(=O)(=O)c2c(F)c(F)c(F)c(F)c2F)c(F)c1 | < 5.40
COC(=O)c1ccc(N(Cc2ccc(C3CCCCC3)cc2)C(=O)[C@H]2CCN2S(=O)(=O)c2c(F)c(F)c(F)c(F)c2F)cc1O | < 5.40
COC(=O)c1ccc(N(Cc2cnc(C3CCCCC3)cn2)C(=O)[C@H]2CCN2S(=O)(=O)c2c(F)c(F)c(F)c(F)c2F)cc1O | 5.12

Turning to the following compound.
pIC50 value, target or system Signal transducer and activator of transcription 3 (Mus musculus, UniProt P42227), for O=C(O)c1coc(N(Cc2ccc(C3CCCCC3)cc2)C(=O)[C@H]2CCN2S(=O)(=O)c2c(F)c(F)c(F)c(F)c2F)n1 : < 5.30
